# Tested on: genotype 3a (S52) wild type transient HCV replicon in Huh-7-derived cells
# experiment summary: Transient-transfected HCV replicon EC50, genotype 3a wild type
# Assay type: cell-based, hepatitis C virus
# particulars: Hepatitis C virus; transient-transfected replicon genotype 3a wild type, 72 h; read-out: EC50 3A WT
Below is a list of entries, each paired with its recorded log10(EC50) value.
recorded endpoint: log10(EC50) (log10 of the value in nM)

{"columns": ["compound", "recorded endpoint", "recorded value"],
 "data": [
  ["COc1ccc2nc3c(nc2c1)O[C@H]1CN(C(=O)[C@H](C(C)(C)C)NC(=O)O[C@@H]2C[C@@H]4C[C@@H]4[C@H]2CCCCC3)[C@H](C(=O)NC2(C(=O)NS(=O)(=O)C3CC3)C[C@H]2C(F)F)[C@@H]1C (stereo in doubt)", "log10(EC50)", 0.72],
  ["COc1ccc2nc3c(nc2c1)O[C@H]1CN(C(=O)[C@H](C(C)(C)C)NC(=O)O[C@@]2(C)C[C@@H]2CCCCC3(F)F)[C@H](C(=O)N[C@]2(C(=O)NS(=O)(=O)C3(C)CC3)C[C@H]2C(F)F)[C@@H]1C", "log10(EC50)", 2.67],
  ["COc1ccc2nc3c(nc2c1)O[C@H]1CN(C(=O)[C@H](C(C)(C)C)NC(=O)O[C@@H]2C[C@H]2CCCCC3)[C@H](C(=O)N[C@]2(C(=O)NS(=O)(=O)C3(C)CC3)C[C@H]2C(F)F)[C@@H]1CC#N", "log10(EC50)", 4.43],
  ["COc1ccc2nc3c(nc2c1)O[C@H]1CN(C(=O)[C@H](C(C)(C)C)NC(=O)O[C@]2(C)C[C@H]2CCCCC3)[C@H](C(=O)N[C@]2(C(=O)NS(=O)(=O)C3(C)CC3)C[C@H]2C(F)F)[C@@H]1C", "log10(EC50)", 0.85],
  ["COc1ccc2nc3c(nc2c1)O[C@H]1CN(C(=O)[C@H](C(C)(C)C)NC(=O)O[C@@H]2C[C@H]2CCCCC3(F)F)[C@H](C(=O)N[C@]2(C(=O)NS(=O)(=O)C3(C)CC3)C[C@H]2C(F)F)[C@@H]1C", "log10(EC50)", 0.83]
]}

###

# Tested on: genotype 4a (ED43) stable HCV replicon in Huh-7-derived cells
# experiment summary: Stable subgenomic HCV replicon EC50, genotype 4a (Renilla luciferase)
# Assay type: cell-based, hepatitis C virus
# particulars: Hepatitis C virus, 72 h, read-out: EC50 4A RLUC

{"columns": ["chemical structure", "EC50 / nM"],
 "data": [
  ["CC[C@@H]1[C@@H]2CN(C(=O)[C@H](C(C)(C)C)NC(=O)O[C@]3(C)CCC[C@H]3CCCCCc3nc4ccc(OC)cc4nc3O2)[C@@H]1C(=O)N[C@]1(C(=O)NS(=O)(=O)C2(C)CC2)C[C@H]1CC(F)F", 135],
  ["COc1ccc2nc3c(nc2c1)O[C@H]1CN(C(=O)[C@H](C(C)(C)C)NC(=O)O[C@@H]2C[C@H]2CCCCC3)[C@H](C(=O)N[C@]2(C(=O)NS(=O)(=O)C3(C)CC3)C[C@H]2CC(F)F)[C@@H]1C", 7.1]
]}

###

Below is a list of entries, each paired with its recorded EC50 value.
# Tested on: genotype 1b NS3/4a protease inhibitor resistant variant D168A transient HCV replicon in Huh-7-derived cells
# experiment summary: Transient-transfected HCV replicon EC50, genotype 1b D168A
# Format: cell-based, hepatitis C virus
# particulars: Hepatitis C virus, 72 h, read-out: EC50 1B D168A, transient-transfected replicon genotype 1b D168A resistant variant, 72 h

{"columns": ["compound", "unit descriptor", "EC50"],
 "data": [
  ["COc1ccc2nc3c(nc2c1)O[C@H]1CN(C(=O)[C@H](C(C)(C)C)NC(=O)O[C@@H]2C[C@@H]4C[C@@H]4[C@H]2CCCCC3)[C@H](C(=O)N[C@]2(C(=O)NS(=O)(=O)C3(C)CC3)C[C@H]2C(F)F)[C@@H]1C", "µM", 0.0042],
  ["COc1ccc2nc3c(nc2c1)O[C@H]1CN(C(=O)[C@H](C(C)(C)C)NC(=O)O[C@@H]2CCN(C(C)=O)C2CCCCC3)[C@H](C(=O)N[C@]2(C(=O)NS(=O)(=O)C3(C)CC3)C[C@H]2C(F)F)[C@@H]1C (some centres unmarked)", "µM", 0.443]
]}

###

# System: genotype 3a (S52) wild type transient HCV replicon in Huh-7-derived cells
# experiment summary: Transient-transfected HCV replicon EC50, genotype 3a wild type
# Type: cell-based, hepatitis C virus
# particulars: Hepatitis C virus; transient-transfected replicon genotype 3a wild type, 72 h; read-out: EC50 3A WT
pEC50: −log10 of the molar value.
recorded endpoint: pEC50

{"columns": ["chemical structure", "recorded value"],
 "data": [
  ["CC[C@@H]1[C@@H]2CN(C(=O)[C@H](C(C)(C)C)NC(=O)O[C@]3(C)C[C@H]3CCCCCc3nc4ccc(OC)cc4nc3O2)[C@@H]1C(=O)N[C@]1(C(=O)NS(=O)(=O)C2(C)CC2)C[C@H]1C(F)F", 7.85],
  ["CC[C@@H]1[C@@H]2CN(C(=O)[C@H](C(C)(C)C)NC(=O)O[C@@H]3C[C@H]3CC/C=C/C(F)(F)c3nc4ccc(C#N)cc4nc3O2)[C@@H]1C(=O)N[C@]1(C(=O)NS(=O)(=O)C2(C)CC2)C[C@H]1C(F)F", 7.96],
  ["CC[C@@H]1[C@@H]2CN(C(=O)[C@H](C(C)(C)C)NC(=O)O[C@@H]3C[C@H]3CCCCC(F)(F)c3nc4ccccc4nc3O2)[C@@H]1C(=O)N[C@]1(C(=O)NS(=O)(=O)C2CC2)C[C@H]1C(F)F", 7.82],
  ["COc1ccc2nc3c(nc2c1)O[C@H]1CN(C(=O)[C@H](C(C)(C)C)NC(=O)O[C@@H]2CC4CC(C4)[C@H]2CCCCC3)[C@H](C(=O)N[C@]2(C(=O)NS(=O)(=O)C3CC3)C[C@H]2C(F)F)[C@@H]1C", 7.31],
  ["CC[C@@H]1[C@@H]2CN(C(=O)[C@H](C(C)(C)C)NC(=O)O[C@@H]3C[C@H]3CCCCC(F)(F)c3nc4ccc(OC)cc4nc3O2)[C@@H]1C(=O)N[C@]1(C(=O)NS(=O)(=O)C2CC2)C[C@H]1CC", 7.34],
  ["COc1ccc2nc3c(nc2c1)O[C@H]1CN(C(=O)[C@H](C(C)(C)C)NC(=O)O[C@]2(C)C[C@H]2CCCCC3(F)F)[C@H](C(=O)N[C@]2(C(=O)NS(=O)(=O)C3(C)CC3)C[C@H]2C(F)F)[C@@H]1C", 8.47],
  ["CC[C@@H]1[C@@H]2CN(C(=O)[C@H](C(C)(C)C)NC(=O)O[C@]3(C)CCC[C@H]3CCCCCc3nc4ccc(OC)cc4nc3O2)[C@@H]1C(=O)N[C@]1(C(=O)NS(=O)(=O)C2(C)CC2)C[C@H]1CC(F)F", 6.27],
  ["CC[C@@H]1[C@@H]2CN(C(=O)[C@H](C(C)(C)C)NC(=O)O[C@@H]3C[C@H]3CCCCCc3nc4ccc(OCC(F)(F)F)cc4nc3O2)[C@@H]1C(=O)N[C@]1(C(=O)NS(=O)(=O)C2(C)CC2)C[C@H]1C(F)F", 7.15],
  ["C=C[C@@H]1C[C@]1(NC(=O)[C@@H]1[C@H](CC)[C@@H]2CN1C(=O)[C@H](C(C)(C)C)NC(=O)O[C@@H]1C[C@H]1CCCCC(F)(F)c1nc3ccc(OC)cc3nc1O2)C(=O)NS(=O)(=O)C1CC1", 8.10]
]}

###

# Test system: genotype 4a (ED43) stable HCV replicon in Huh-7-derived cells
# experiment summary: Stable subgenomic HCV replicon EC50, genotype 4a (Renilla luciferase)
# Type: cell-based, hepatitis C virus
# particulars: Hepatitis C virus, 72 h, read-out: EC50 4A RLUC
# if measured EC50 < 9 nM: Yes  # else: No

{"columns": ["compound", "label class"],
 "data": [
  ["COc1ccc2nc3c(nc2c1)O[C@H]1CN(C(=O)[C@H](C2(C)CCCC2)NC(=O)O[C@@H]2C[C@H]2CCCCC3)[C@H](C(=O)N[C@]2(C(=O)NS(=O)(=O)C3(C)CC3)C[C@H]2C(F)F)[C@@H]1C", "Yes"],
  ["C=C[C@@H]1C[C@]1(NC(=O)[C@@H]1[C@H](C)[C@@H]2CN1C(=O)[C@H](C(C)(C)C)NC(=O)O[C@@H]1C[C@H]1CCCCCc1nc3ccc(OC)cc3nc1O2)C(=O)NS(=O)(=O)C1CC1", "Yes"],
  ["CC[C@@H]1[C@@H]2CN(C(=O)[C@H](C(C)(C)C)NC(=O)O[C@]3(C)C[C@H]3CCCCC(F)(F)c3nc4ccc(OC)cc4nc3O2)[C@@H]1C(=O)N[C@]1(C(=O)NS(=O)(=O)C2(C)CC2)C[C@H]1C(F)F", "Yes"],
  ["CC[C@@H]1[C@@H]2CN(C(=O)[C@H](C(C)(C)C)NC(=O)O[C@@H]3C[C@H]3CCCCC(F)(F)c3nc4ccc(OC)cc4nc3O2)[C@@H]1C(=O)N[C@]1(C(=O)NS(=O)(=O)C2(C)CC2)C[C@H]1CC(F)F", "Yes"],
  ["COc1ccc2nc3c(nc2c1)O[C@H]1CN(C(=O)[C@H](C(C)(C)C)NC(=O)O[C@@H]2C[C@@H]4C[C@@H]4[C@H]2CCCCC3)[C@H](C(=O)NC2(C(=O)NS(=O)(=O)C3CC3)C[C@H]2C(F)F)[C@@H]1C (stereo in doubt)", "Yes"],
  ["CC[C@@H]1[C@@H]2CN(C(=O)[C@H](C(C)(C)C)NC(=O)O[C@@H]3C[C@H]3CCCCC(F)(F)c3nc4ccc(OC)cc4nc3O2)[C@@H]1C(=O)NC1(C(=O)NS(=O)(=O)C2(C)CC2)C[C@H]1CC (some centres unmarked)", "No"],
  ["C[C@@H]1[C@@H]2CN(C(=O)[C@H](C(C)(C)C)NC(=O)O[C@@H]3C[C@@H]4C[C@@H]4[C@H]3CCCCC(F)(F)c3nc4ccccc4nc3O2)[C@@H]1C(=O)N[C@]1(C(=O)NS(=O)(=O)C2(C)CC2)C[C@H]1C(F)F", "No"],
  ["CC[C@@H]1[C@@H]2CN(C(=O)[C@H](C(C)(C)C)NC(=O)O[C@]3(C)CCC[C@H]3CCCCCc3nc4ccc(OC)cc4nc3O2)[C@@H]1C(=O)N[C@]1(C(=O)NS(=O)(=O)C2CC2)C[C@H]1CC", "No"],
  ["CC[C@@H]1[C@@H]2CN(C(=O)[C@H](C(C)(C)C)NC(=O)O[C@]3(C)CCC[C@H]3CCCCCc3nc4ccc(OC)cc4nc3O2)[C@@H]1C(=O)N[C@]1(C(=O)NS(=O)(=O)C2(C)CC2)C[C@H]1CC", "No"],
  ["C[C@@H]1[C@@H]2CN(C(=O)[C@H](C(C)(C)C)NC(=O)O[C@@H]3C[C@@H]4C[C@@H]4[C@H]3CCCCCc3nc4ccc(F)cc4nc3O2)[C@@H]1C(=O)N[C@]1(C(=O)NS(=O)(=O)C2(C)CC2)C[C@H]1C(F)F", "Yes"],
  ["CC[C@@H]1C[C@]1(NC(=O)[C@@H]1[C@H](C)[C@@H]2CN1C(=O)[C@H](C(C)(C)C)NC(=O)O[C@@H]1C[C@H]1CCCCCc1nc3ccc(OC)cc3nc1O2)C(=O)NS(=O)(=O)C1(C)CC1", "Yes"],
  ["COc1ccc2nc3c(nc2c1)O[C@H]1CN(C(=O)[C@H](C(C)(C)C)NC(=O)O[C@]2(C)C[C@H]2CCCCC3(F)F)[C@H](C(=O)N[C@]2(C(=O)NS(=O)(=O)C3(C)CC3)C[C@H]2C(F)F)[C@@H]1C", "Yes"],
  ["CC[C@@H]1[C@@H]2CN(C(=O)[C@H](C(C)(C)C)NC(=O)O[C@@]3(C)C[C@@H]3CCCCC(F)(F)c3nc4ccc(OC)cc4nc3O2)[C@@H]1C(=O)N[C@]1(C(=O)NS(=O)(=O)C2(C)CC2)C[C@H]1C(F)F", "No"],
  ["CC[C@@H]1[C@@H]2CN(C(=O)[C@H](C(C)(C)C)NC(=O)O[C@@H]3C[C@H]3CCCCCc3nc4ccc(OC)cc4nc3O2)[C@@H]1C(=O)N[C@]1(C(=O)NS(=O)(=O)C2(C)CC2)C[C@H]1C(F)F", "Yes"],
  ["CC[C@@H]1[C@@H]2CN(C(=O)[C@H](C(C)(C)C)NC(=O)O[C@@H]3C[C@@H]4C[C@@H]4[C@H]3CCCCC(F)(F)c3nc4ccc(OC)cc4nc3O2)[C@@H]1C(=O)N[C@]1(C(=O)NS(=O)(=O)C2CC2)C[C@H]1C(F)F", "Yes"],
  ["COc1ccc2nc3c(nc2c1)O[C@H]1CN(C(=O)[C@H](C(C)(C)C)NC(=O)O[C@@H]2C[C@H]2CCCCC3)[C@H](C(=O)N[C@]2(C(=O)NS(=O)(=O)C3CC3)C[C@H]2C(F)F)[C@@H]1C", "Yes"]
]}
